All values here come from ChEMBL document CHEMBL5724796.

- Measurement target: Casein kinase I isoform delta (Homo sapiens) (UniProt P48730)
- Sequence (P48730 whole entry, looked up, canonical isoform): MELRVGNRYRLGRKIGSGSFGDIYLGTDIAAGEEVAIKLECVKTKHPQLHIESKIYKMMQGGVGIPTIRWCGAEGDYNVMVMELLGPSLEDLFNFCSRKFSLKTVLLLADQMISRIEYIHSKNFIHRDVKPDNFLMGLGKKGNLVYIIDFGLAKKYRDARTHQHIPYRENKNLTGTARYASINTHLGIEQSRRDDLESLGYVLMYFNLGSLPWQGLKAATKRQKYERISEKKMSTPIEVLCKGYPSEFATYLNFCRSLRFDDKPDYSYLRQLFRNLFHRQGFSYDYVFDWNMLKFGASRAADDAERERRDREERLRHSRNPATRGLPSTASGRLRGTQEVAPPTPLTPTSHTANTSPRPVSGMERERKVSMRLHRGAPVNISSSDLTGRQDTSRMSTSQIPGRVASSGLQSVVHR
- Experimental context: Compound concentration 20.0 uM
- Description: Thermal Shift Assay. Domain: start/stop: M1-K294
Threshold -0.06 °C. ΔTm below it: true. ΔTm at it or above: false.

Below are worked cases with known answers.
>>> category_label("COC[C@H](NC(=O)c1ccn(S(C)(=O)=O)c1)C(=O)Nc1nc(-c2cccc(-c3ccn(C)n3)c2)cs1")
"false"
>>> category_label("N=C(N)SCc1ccc(CN2C(=O)C(=O)c3cc(Br)cc(Br)c32)cc1")
"true"
>>> category_label("Cc1cc(OCCCNCC(C)(C)C(N)=O)ccc1Cc1c(O[C@@H]2O[C@H](CO)[C@@H](O)[C@H](O)[C@H]2O)n[nH]c1C(C)C")
"true"
>>> category_label("Cc1cc(/N=N/c2ccc(S(=O)(=O)NC3CCCC3)cc2)c(N)cc1O")
"false"
>>> category_label("COc1ccc(Cc2nc(O)c3c(C)nc([C@@H](CCCc4ccccc4)[C@@H](C)O)n3n2)cc1OC")
"true"
>>> category_label("N=C(N)NC(=O)c1cnn(-c2cccc3ncccc23)c1C1CC1")
"true"
>>> category_label("Cc1nc2ccccn2c1C(=O)CN1CCN(c2ccc(F)cn2)CC1")
"true"
>>> category_label("CN1C(=O)c2c(nn(Cc3ccc(-c4cccc(F)n4)cc3)c2Nc2ccccc2)N2C1=N[C@@H]1CCC[C@@H]12")
"true"

I'd appreciate it if you could check whether CC(=O)O[C@]1(C(C)=O)CC[C@H]2[C@@H]3CCC4=CC(=O)CCC4=C3[C@@H](c3ccc(N(C)C)cc3)C[C@@]21C has ΔTm smaller than -0.06 °C.
false

Say whether its ΔTm is strictly beneath -0.06 °C. Entry: Cc1cc(C)cc(Oc2ccc(CNC(=O)[C@H](C)N)cc2C)c1
false

Would you kindly verify if ΔTm of COc1ccc(-c2ccc(-c3cn(C(=O)N4CCCCC4c4ccccc4)nn3)cc2)cc1 (centres undefined) is strictly less than -0.06 °C?
true

Quick check: does Nc1ncnc2c1ncn2[C@@H]1O[C@H](C(=O)N2CCN(CC(=O)Nc3cccc4c3CNC4=O)CC2)[C@@H](O)[C@H]1O have ΔTm under -0.06 °C?
false

Does the reported ΔTm of O=C(Oc1cccc(F)c1OC(=O)c1cccc(O)c1)c1cccc(O)c1 stay below -0.06 °C?
false

A record lists CC(C)c1ccc(C(=O)N=C(N)N)cc1S(C)(=O)=O . Is its ΔTm below -0.06 °C?
true

====

- Measurement target: Casein kinase I isoform delta (Homo sapiens) (UniProt P48730)
- Experimental context: Compound concentration 20.0 uM
Parameter: ΔTm. Scope: all listed entries.
Return type: number; implicit unit °C.

>>> experimental_result("O=C1c2ccccc2C(=O)c2oc(-c3ccc(F)cc3)nc21")
-0.12
>>> experimental_result("Cn1nc(C(C)(C)C)cc1C(=O)NC(Cc1cccc(Cl)c1)C(=O)NCC#N (centres undefined)")
0.04
>>> experimental_result("Cc1cc(C)c(CNC(=O)c2cc(Cl)c3c(c2C)O[C@@](C)([C@H]2CC[C@H](N(C)C)CC2)O3)c(=O)[nH]1")
0.43
>>> experimental_result("CNC[C@@H](O)COc1ccc(Cl)c(-c2nc(-c3c(C)noc3C)c(C)c(N3CC4(CCN(C(=O)OC)CC4)C3)n2)c1")
0.05
>>> experimental_result("O=C1Nc2ccccc2C2(CCN(CC(Cc3ccccc3)Nc3nc4ccc(F)cc4s3)CC2)N1 (centres undefined)")
-0.49

Recorded ΔTm of CN(CCCCCCNc1ccnc2cc(Cl)ccc12)CCCCCCNc1ccnc2cc(Cl)ccc12 , please.
-0.85

Given the entry O=C(c1cc(Cc2n[nH]c(=O)c3ccccc23)ccc1F)N1CC(CNC2CC2)C1 , report its measured ΔTm.
-0.14

====

- Measurement target: Bromodomain-containing protein 4 (Homo sapiens)
- Experimental context: Compound concentration 20.0 uM
Class Criterion met: ΔTm at least -3 °C. Class Criterion not met: ΔTm below -3 °C.

>>> category_label("C[C@H](c1nc2c(cnn2C2CCOCC2)c(=O)[nH]1)N1CC(Oc2ccccc2)C1")
"Criterion met"
>>> category_label("O=S(=O)(CSc1nnc(Br)n1Cc1ccc(Br)c2ccccc12)Nc1cccnc1")
"Criterion not met"
>>> category_label("COc1ncc(C)c(-c2ccc3c(c2)[nH]c(=O)c2cnn([C@H]4CCOC4)c23)c1C")
"Criterion not met"
>>> category_label("COC[C@H](NC(=O)c1ccn(S(C)(=O)=O)c1)C(=O)Nc1nc(-c2cccc(-c3ccn(C)n3)c2)cs1")
"Criterion met"

Given O=C1COc2c(cccc2[C@@H](O)CNCCN(C(=O)CCNCCc2ccc(Cl)c(Cl)c2)C2CCCCC2)N1 , state whether its ΔTm is at least -3 °C.
Criterion met

In plain terms: is recorded ΔTm at least -3 °C for O=C(CNC(=O)[C@H](COP(=O)(O)O)NC(=O)CCc1c[nH]c2ccccc12)NCCCCc1ccccc1 ?
Criterion not met

Form field: ΔTm at least -3 °C? Entry: O=C(O)Cn1nnc(-c2ccc(CN(CCCCOc3ccc(CN4CCCC4)cc3)CCc3ccccc3)cc2)n1
Criterion not met

For this molecule, is measured ΔTm -3 °C or higher? O=C(c1cc(Cl)c(O)c(Cl)c1)N1CS(=O)(=O)c2ccccc21
Criterion met

====

- Measurement target: Tyrosine-protein kinase ABL1 (Homo sapiens) (UniProt P00519)
- Sequence (P00519 whole entry): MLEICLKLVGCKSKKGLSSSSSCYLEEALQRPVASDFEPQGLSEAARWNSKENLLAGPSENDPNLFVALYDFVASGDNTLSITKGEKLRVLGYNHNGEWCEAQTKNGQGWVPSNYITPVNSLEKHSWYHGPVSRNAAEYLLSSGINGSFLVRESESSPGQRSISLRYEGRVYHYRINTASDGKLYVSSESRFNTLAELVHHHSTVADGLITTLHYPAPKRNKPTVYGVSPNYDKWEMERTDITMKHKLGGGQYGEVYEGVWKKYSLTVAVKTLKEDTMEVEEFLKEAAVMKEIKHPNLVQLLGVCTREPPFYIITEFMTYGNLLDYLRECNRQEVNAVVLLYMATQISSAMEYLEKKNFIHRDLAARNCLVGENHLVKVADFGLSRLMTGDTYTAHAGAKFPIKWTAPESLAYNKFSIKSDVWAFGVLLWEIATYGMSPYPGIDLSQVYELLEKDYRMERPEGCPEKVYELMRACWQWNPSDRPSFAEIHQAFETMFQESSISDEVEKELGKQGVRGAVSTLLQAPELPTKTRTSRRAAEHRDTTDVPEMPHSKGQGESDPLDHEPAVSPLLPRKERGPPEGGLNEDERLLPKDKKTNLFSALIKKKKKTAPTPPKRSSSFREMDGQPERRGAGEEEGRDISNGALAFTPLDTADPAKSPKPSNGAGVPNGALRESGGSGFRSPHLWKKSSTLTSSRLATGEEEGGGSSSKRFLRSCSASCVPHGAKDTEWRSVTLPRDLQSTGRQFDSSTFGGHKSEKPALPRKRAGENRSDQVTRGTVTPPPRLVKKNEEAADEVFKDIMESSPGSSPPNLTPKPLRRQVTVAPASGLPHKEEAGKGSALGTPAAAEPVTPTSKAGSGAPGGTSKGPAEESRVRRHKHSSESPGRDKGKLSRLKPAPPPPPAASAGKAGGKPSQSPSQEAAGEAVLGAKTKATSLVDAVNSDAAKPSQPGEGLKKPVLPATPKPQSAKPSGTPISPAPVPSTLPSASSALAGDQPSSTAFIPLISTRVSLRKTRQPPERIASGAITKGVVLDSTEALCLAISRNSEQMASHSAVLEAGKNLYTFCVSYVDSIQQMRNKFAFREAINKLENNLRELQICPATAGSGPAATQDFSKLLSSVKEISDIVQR
- Experimental context: Compound concentration 20.0 uM
- Description: Thermal Shift Assay. Domain: start/stop: S229-K512
# ΔTm values compiled below
Field: numeric (°C). Do not append units.

>>> experimental_result("C[C@H](c1nc2c(cnn2C2CCOCC2)c(=O)[nH]1)N1CC(Oc2ccccc2)C1")
0.76

ΔTm lookup needed for Cc1ncsc1-c1ccc(CNC(=O)[C@@H]2C[C@@H](O)CN2C(=O)[C@@H](NC(=O)COCC(C)(COCCOCCOCCNC(=O)C[C@@H]2N=C(c3ccc(Cl)cc3)c3c(sc(C)c3C)-n3c(C)nnc32)COCCOCCOCCNC(=O)C[C@@H]2N=C(c3ccc(Cl)cc3)c3c(sc(C)c3C)-n3c(C)nnc32)C(C)(C)C)cc1 , thanks.
-0.19

Which value of ΔTm has been reported for CN(CCOc1ccc(-c2ccc3c(c2)OCO3)cc1C(C)(C)C)CC(=O)O in the records?
0.97

====

- Measurement target: Tyrosine-protein kinase ABL1 (Homo sapiens) (UniProt P00519)
- Experimental context: Compound concentration 20.0 uM
Recorded ΔTm determines the label; the label ranges are c1 (below 0.3 °C), c2 (0.3 °C to below 0.6 °C), c3 (0.6 °C or more)

Answered examples (5):
>>> category_label("CN(Cc1ccccc1)c1ccc2cc(C(=O)O)c(=O)oc2c1")
"c2"
>>> category_label("CC(=O)N1CCC(Nc2cc(C(=O)NC[C@H](O)CN3CCc4ccccc4C3)ncn2)CC1")
"c2"
>>> category_label("COc1cccc(OC)c1S(=O)(=O)Nc1noc2cc(Cn3cccn3)cc(OC)c12")
"c3"
>>> category_label("Nc1ncnc2c1ncn2[C@@H]1O[C@H](C[C@@H](N)CC[C@H](N)C(=O)O)[C@@H](O)[C@H]1O")
"c2"
>>> category_label("C[C@H](NC(=O)[C@H](Cc1ccccc1)NC(=O)OCc1ccccc1)C(=O)CF")
"c2"

Which of the defined bands does the recorded ΔTm of O=C(c1ccc2[nH]ccc2c1)N1CCN(S(=O)(=O)c2ccc3[nH]c(=O)oc3c2)CC1 sit within?
c3

Note: place this compound into its band. Item: N[C@@H](CC(=O)N1CCN(C(c2ccc(F)cc2)c2ccc(F)cc2)CC1)C(=O)N1Cc2ccccc2C1
c1

Just checking, what class would you give CC(=O)N[C@@H](C)C(=O)N[C@@H](CCC(=O)O)C(=O)N[C@H](C(=O)N[C@@H](C=O)CC(=O)O)C(C)C here?
c1

Lab note: sort CC(C)c1c(-c2cnn(C(C)(C)C)c2)[nH]c2c(C#N)cnn2c1=O into the matching ΔTm band.
c2

Please report the category associated with O=c1[nH][nH]c(=O)c2cc(OCc3ccsc3)ccc12 , nothing else.
c3

====

- Measurement target: Tyrosine-protein kinase ABL1 (Homo sapiens) (UniProt P00519)
- Experimental context: Compound concentration 20.0 uM
Hi, to clarify the labels: MET covers ΔTm from 0.3 °C upward, NOT MET covers anything below 0.3 °C.

Known results for compounds:
>>> category_label("O=C(NCc1ccc(Cl)cc1)C1CCN(S(=O)(=O)c2cc(Cl)cc(Cl)c2)CC1")
"MET"
>>> category_label("NS(=O)(=O)OC[C@H]1C[C@@H](Nc2ccnc3cc(-c4cccc(SC(F)(F)F)c4)nn23)[C@H](O)[C@@H]1O")
"MET"
>>> category_label("Cc1cc(C)nc(SCC(=O)Nc2ncc(Cc3cccc4ccccc34)s2)n1")
"MET"
>>> category_label("CC(=O)O[C@]1(C(C)=O)CC[C@H]2[C@@H]3CCC4=CC(=O)CCC4=C3[C@@H](c3ccc(N(C)C)cc3)C[C@@]21C")
"NOT MET"
>>> category_label("CCN(CCN(C)C)C(=O)CNCc1cc(C(N)=O)ccn1")
"MET"
>>> category_label("CC(C)(C)OC(=O)Nc1ccc(-c2cc(C(=O)NCCCCCCC(=O)NO)no2)cc1")
"NOT MET"
>>> category_label("O=C(NCCc1cc(C(=O)NO)no1)c1ccc(Cl)c(Cl)c1")
"MET"
>>> category_label("CCN(c1cc(-c2ccc(CN3CCOCC3)cc2)cc(C(=O)NCc2c(C)cc(C)[nH]c2=O)c1C)C1CCOCC1")
"NOT MET"
>>> category_label("CN(CCCN1c2ccccc2CCc2ccccc21)CC(=O)c1ccc(Cl)cc1")
"NOT MET"
>>> category_label("Nc1nc2cc(CC[C@H]3C[C@@H](n4ccc5c(N)ncnc54)[C@H](O)[C@@H]3O)ccc2cc1Br")
"MET"

Assess whether reported ΔTm for O=C(NC1CCC1)c1ccc2nc(-c3cccc(NS(=O)(=O)NCCN4CCCCC4)c3)cn2c1 sits at 0.3 °C or higher.
MET

Determine whether this compound has ΔTm no lower than 0.3 °C: CCCN(CCC)c1ccc(C=O)cc1Br
NOT MET

Does the reported ΔTm for N[C@@H](CCCCB(O)O)C(=O)O fall at or above the 0.3 °C mark?
NOT MET
